Below are compounds with their HepSE_hepatitis as measured on Hepatotoxicity.
Give the figure by itself; no unit, no explanation.

c1ccc2c(c1)CCCC2C1=NCCN1 (configuration not stated) [TETRAHYDROZOLINE] :: 0
CCCCN1C[C@H](O)[C@@H](O)[C@H](O)[C@H]1CO :: 0
C/C(=C\C(=O)OCCCCCCCCC(=O)O)C[C@@H]1OC[C@H](C[C@@H]2O[C@H]2[C@@H](C)[C@H](C)O)[C@@H](O)[C@H]1O :: 0
Cc1ncc([N+](=O)[O-])n1CCO :: 1
O=C1CN2Cc3c(ccc(Cl)c3Cl)N=C2N1 [ANAGRELIDE] :: 0
C[C@]12C=CC(=O)C=C1CC[C@@H]1[C@@H]2[C@@H](O)C[C@@]2(C)[C@H]1CC[C@]2(O)C(=O)CO :: 0

Q: Entry CCC(C)n1ncn(-c2ccc(N3CCN(c4ccc(OCC5COC(Cn6cncn6)(c6ccc(Cl)cc6Cl)O5)cc4)CC3)cc2)c1=O (configuration not stated) : reported HepSE_hepatitis = ?
Result: 1

Q: Same question for CC[C@H](C)C(=O)O[C@H]1C[C@H](O)C=C2C=C[C@H](C)[C@H](CC[C@@H](O)C[C@@H](O)CC(=O)O)[C@H]21 please.
Result: 1

Q: Queued: CC[C@@H]([C@H](C)O)n1ncn(-c2ccc(N3CCN(c4ccc(OC[C@@H]5CO[C@@](Cn6cncn6)(c6ccc(F)cc6F)C5)cc4)CC3)cc2)c1=O
Result: 1

Q: Follow-up item: NC(=O)N1c2ccccc2CC(=O)c2ccccc21 [OXCARBAZEPINE]
Result: 0

Q: CN1CCN(CCCN2c3ccccc3Sc3ccc(Cl)cc32)CC1 ?
Result: 0

---

System: Hepatotoxicity | Read-out: HepSE_liver function tests abnormal
Quick one: just the number, no unit, thanks!

Q: Notebook: pull reported HepSE_liver function tests abnormal for Hepatotoxicity, entry COCCCC/C(=N\OCCN)c1ccc(C(F)(F)F)cc1
Result: 1

Q: # iterate: Nc1cc(Cl)c(N=C2NCCN2)c(Cl)c1
Result: 0

Q: Try the compound Cc1cc2c(s1)Nc1ccccc1N=C2N1CCN(C)CC1
Result: 0

Q: Quick one: C=C(CC)C(=O)c1ccc(OCC(=O)O)c(Cl)c1Cl
Result: 1

Q: CC(=O)NCCCS(=O)(=O)O [ACAMPROSATE] , same question.
Result: 1

---

A short record of HepSE_jaundice observed with Hepatotoxicity follows.

Q: Report HepSE_jaundice for COc1cc(C)c(/C=C/C(C)=C/C=C/C(C)=C/C(=O)O)c(C)c1C please.
Result: 1

Q: Can you check Cc1ccc(NC(=O)c2ccc(CN3CCN(C)CC3)cc2)cc1Nc1nccc(-c2cccnc2)n1 next?
Result: 1

Q: And then N=C(N)NCCC[C@H](N)C(=O)O , what is it?
Result: 0

Q: And the next one, N[C@@H](Cc1cc(I)c(Oc2ccc(O)c(I)c2)c(I)c1)C(=O)O ?
Result: 0

Q: // next record COc1ccc2c3c1O[C@H]1C[C@@H](O)C=C[C@@]31CCN(C)C2
Result: 0

---

tested on: Hepatotoxicity
READOUT_TYPE: HepSE_hepatitis
Reply with the value as a number alone.

C[C@]12CC[C@@H]3c4ccc(OC(=O)N(CCCl)CCCl)cc4CC[C@H]3[C@@H]1CC[C@@H]2O [ESTRAMUSTINE] :: 0
COc1ccc2c3c1O[C@H]1C[C@@H](O)C=C[C@@]31CCN(C)C2 [GALANTAMINE] :: 1
CN[C@@H](C)Cc1ccccc1 [METHAMPHETAMINE] :: 0
N=C(N)NC(=O)c1nc(Cl)c(N)nc1N [AMILORIDE] :: 0
CC(=O)NS(=O)(=O)c1ccc(N)cc1 [SULFACETAMIDE] :: 0

Q: I would be grateful if you could share the reported HepSE_hepatitis for Cc1c(-c2ccccc2)oc2c(C(=O)OCCN3CCCCC3)cccc2c1=O [FLAVOXATE] .
Result: 0

Q: Then what about the molecule CN[C@@H]1CCc2[nH]c3ccc(C(N)=O)cc3c2C1 [FROVATRIPTAN] ?
Result: 0

Q: Would you mind doing CN[C@H](CC(C)C)C(=O)N[C@H]1C(=O)N[C@@H](CC(N)=O)C(=O)N[C@H]2C(=O)N[C@H]3C(=O)N[C@H](C(=O)N[C@H](C(=O)O)c4cc(O)cc(O)c4-c4cc3ccc4O)[C@H](O)c3ccc(c(Cl)c3)Oc3cc2cc(c3O[C@@H]2O[C@H](CO)[C@@H](O)[C@H](O)[C@H]2O[C@H]2C[C@](C)(N)[C@H](O)[C@H](C)O2)Oc2ccc(cc2Cl)[C@H]1O [VANCOMYCIN] as well?
Result: 0

Q: Proceed to COc1cccc(C2(O)CCCCC2CN(C)C)c1 (configuration not stated) [TRAMADOL]
Result: 1

Q: Queued: CC(C)C(=O)Nc1ccc([N+](=O)[O-])c(C(F)(F)F)c1 [FLUTAMIDE]
Result: 1

Q: Also, OC(CNCC(O)C1CCc2cc(F)ccc2O1)C1CCc2cc(F)ccc2O1 (configuration not stated) [NEBIVOLOL] please.
Result: 0
